- Tested on: SK-MEL-2
- methodDescription: NCI tumour cell line growth inhibition, 48 h
The source made the active and inactive calls. No stated cut-off is given here; in the data, active = GI50 up to about 1.1 µM and inactive = higher.
Catalogue of GI50 values

-- ask What value of measured GI50 is listed for CC(C)=CC(=O)Cc1nc2ccc([N+](=O)[O-])cc2[nH]c1=O ?
-- reply > 100 µM (inactive)

-- ask Then O=C1/C(=C/c2ccccc2)NC(=S)N1CN1CCOCC1 ?
-- reply > 100 µM (inactive)

-- ask Then COc1ccc(C2CC(c3sc(Nc4ccc(C)cc4)nc3C)=NN2)cc1 (stereo not given) ?
-- reply 15.8 µM (inactive)

-- ask Then O=C(CC(O)(C(F)(F)F)C(F)(F)F)c1cc(CC(=O)C(O)(C(F)(F)F)C(F)(F)F)cc(CC(=O)C(O)(C(F)(F)F)C(F)(F)F)c1 ?
-- reply 1.75 µM (inactive)

---

- System: M14
- methodDescription: NCI tumour cell line growth inhibition, 48 h
Activity calls are given as the source filed them. Rule as the data show it: active = GI50 up to about 1.1 µM and inactive = higher.
Catalogue of GI50 values

Below, each entry is followed by its recorded GI50 result.
compound	targetEntity	GI50
O=C(Cn1c2ccc(Br)cc2c2nc3ccccc3nc21)Nc1ccccc1	M14	30.1 µM (inactive)
OC1(c2cccs2)c2cccc(Cl)c2C(O)(c2cccs2)c2c(Cl)cccc21 (configuration not stated)	M14	> 100 µM (inactive)
CCCCc1ccc(Nc2nc(Cl)c3ccn(C4CC(Oc5ccc(C)cc5)C(COc5ccc(C)cc5)O4)c3n2)cc1 (configuration not stated)	M14	> 46.5 µM (inactive)

-- ask What value of measured GI50 is listed for CCc1c2c(cc3c1CC1(C3)Cc3cc4c(c(C(=O)OC)c3C1)CCCC4)CCCC2 (configuration not stated) ?
-- reply > 100 µM (inactive)

-- ask Then O=c1[nH]cc(C(F)(C(F)(F)F)C(F)(F)F)c(=O)[nH]1 ?
-- reply > 100 µM (inactive)

-- ask Then Cc1cn(C2OC(CO[Si](C)(C)C(C)(C)C)C(N(C)O[Si](C)(C)C(C)(C)C)C2[Se]c2ccccc2)c(=O)[nH]c1=O (configuration not stated) ?
-- reply 8.3 µM (inactive)

-- ask Then O=C(/C=C/c1ccc(Cl)cc1)c1ccccc(=O)c1O ?
-- reply 2.87 µM (inactive)

---

Catalogue of GI50 values
- Test system: U-251
- methodDescription: NCI tumour cell line growth inhibition, 48 h
Active and inactive are the calls of the source. Cut-off read from the data, not from the text of the source: active = GI50 up to about 1.1 µM and inactive = higher.

compound	targetEntity	GI50
COc1ccc(/C=C2\CCc3ccccc3C2=O)cc1OC	U-251	31 µM (inactive)
COC(=O)C(=O)C(C(C)=O)C(=O)C(=O)Nc1ccc(C)cc1C (stereo unspecified)	U-251	> 100 µM (inactive)
O/N=C1\C/C(=N\O)c2c(Br)sc(Br)c21	U-251	43.2 µM (inactive)
N=C(N)Nc1ccc(-c2ccc(NC(=N)N)cc2)cc1	U-251	23.6 µM (inactive)
N#C[BH2-][n+]1cn(C2CC(O)C(COP(=O)(O)OC3CC(n4cnc5c(N)ncnc54)OC3CO)O2)c2nc(N)[nH]c(=O)c21 (stereo unspecified)	U-251	> 100 µM (inactive)

-- ask So what GI50 did CN1CCc2c(sc3ncn(Nc4ccc(Cl)cc4)c(=N)c23)C1 get with U-251?
-- reply > 100 µM (inactive)

-- ask Then Cn1c(=O)c2nc(CCNC(=O)c3ccccc3)[nH]c2n(C)c1=O ?
-- reply > 100 µM (inactive)

-- ask Then Cc1cn(CCOCCOC(=O)NC(CCCNC(=N)N)C(=O)O)c(=O)[nH]c1=O (stereo unspecified) ?
-- reply > 100 µM (inactive)

-- ask Then CC(=O)n1c2ccc(Br)cc2c2nc3ccccc3nc21 ?
-- reply > 100 µM (inactive)

-- ask Then Cc1cc(S(=O)(=O)Nc2nc3cscc3c(=O)n2N)c(S)cc1Cl ?
-- reply 37.3 µM (inactive)

-- ask Then O=C(O)CN(c1ccccc1)S(=O)(=O)c1ccc(NC(=O)c2ccccc2)cc1 ?
-- reply > 100 µM (inactive)

-- ask Then O=C(c1cccc(F)c1F)N1CCc2c([nH]c3ccccc23)C1c1ccc2c(c1)OCO2 (stereo unspecified) ?
-- reply 11.1 µM (inactive)

-- ask Then COc1cc(C2C(Cl)C(=O)N2NC(=O)c2ccc(N)cc2)ccc1O (stereo unspecified) ?
-- reply 18 µM (inactive)

-- ask Then COc1cc(NS(C)(=O)=O)ccc1Nc1c2ccccc2nc2ccccc12 ?
-- reply 0.166 µM (active)

-- ask Then O=C(COc1ccc(Cl)c(Cl)c1)Nc1ccc[n+](Cc2ccc(S(=O)(=O)F)c(Cl)c2)c1 ?
-- reply > 100 µM (inactive)

-- ask Then CCCCCCCCCC1(N=[N+]=[N-])C(=O)c2ccccc2N(C)C1=O (stereo unspecified) ?
-- reply 2.22 µM (inactive)

-- ask Then COc1ccc2nc3c(c(NCCCN(C)C)c2c1)CCCC3 ?
-- reply 15.5 µM (inactive)

-- ask Then CCc1c2c(cc3c1CC1(C3)Cc3cc4c(c(C(=O)OC)c3C1)CCCC4)CCCC2 (stereo unspecified) ?
-- reply > 100 µM (inactive)

-- ask Then Nc1ncn(C2C=C(CO)C(O)C2O)c(=O)n1 (stereo unspecified) ?
-- reply > 100 µM (inactive)

-- ask Then NC(=O)N=C(N(Cc1ccccc1)Cc1ccccc1)N(Cc1ccccc1)Cc1ccccc1 ?
-- reply 7.45 µM (inactive)

-- ask Then CCOC(=O)c1c(O)nc2cccc3c2c1-c1cccnc1S3 ?
-- reply 21.3 µM (inactive)

-- ask Then Cc1c(-c2nnc(-c3ccccc3)o2)c(=O)n(-c2ccccc2)n1C ?
-- reply > 100 µM (inactive)

-- ask Then COc1cc(Br)cc2cc(C3=CSC4=NCCN34)c(=O)oc12 ?
-- reply 18.1 µM (inactive)

-- ask Then NC(=S)N/N=C1\CC(c2ccccc2)Nc2ccccc21 (stereo unspecified) ?
-- reply 39.6 µM (inactive)

-- ask Then CCCCc1ccc2[n+](c1)C(C(=O)OCC)=PC2 (stereo unspecified) ?
-- reply 71.4 µM (inactive)

-- ask Then Cc1cc(Cc2cc(Cc3cc(C)cc(C(C)(C)C)c3O)c(C)cc2C)c(O)c(C(C)(C)C)c1 ?
-- reply > 100 µM (inactive)

-- ask Then CON(C)C(=O)C(Cc1ccccc1)NC(=O)OCc1ccccc1 (stereo unspecified) ?
-- reply > 100 µM (inactive)

-- ask Then N=C(N)SCc1ccc2c(c1)S(=O)(=O)c1ccccc1O2 ?
-- reply 18.1 µM (inactive)
